Data origin, for the record: patent US8211897B2

biological target: Human Liver Cathepsin B (Homo sapiens, UniProt P07858)
# Lookup of reported IC50 keyed by entry
Give the value, in units of nM, as a plain number.

[
  {
    "Compound": "CCC[C@H](NC(=O)[C@@H]1C[C@@H](Oc2nccc3cc(OC)ccc23)CN1C(=O)[C@@H](NC(=O)NC(C)(C)C)C(C)(C)C)C(=O)C(=O)NC1CC1 [Example 9]",
    "IC50, nM": 27
  },
  {
    "Compound": "CCC[C@H](NC(=O)[C@@H]1CC(Oc2cc(-n3cccn3)nc3cc(OC)ccc23)CN1C(=O)[C@@H](NC(=O)NCC1CC1)C(C)(C)C)C(=O)C(=O)NC1CC1 (stereo partly shown)",
    "IC50, nM": 83
  },
  {
    "Compound": "CCC[C@H](NC(=O)[C@@H]1C[C@@H](Oc2nc(-c3cc(C)nn3C)nc3ccsc23)CN1C(=O)[C@@H](NC(=O)NC(C)(C)C)C(C)(C)C)C(=O)C(=O)NC1CC1 [Example 18]",
    "IC50, nM": 72
  }
]

What value of IC50 on Human Liver Cathepsin B (Homo sapiens, UniProt P07858) does CCC[C@H](NC(=O)[C@@H]1C[C@@H](Oc2nccc3cc(OCC)ccc23)CN1C(=O)[C@@H](NC(=O)NC(C)(C)C)C(C)(C)C)C(=O)C(=O)NC1CC1 [Example 12] have? 45
